Here the recorded logP is given for each entry.
- TEST_PROTOCOL: logP determination via retention times, calibrated with unbranched alkan-2-ones
- Format: physicochemical
- CONDITIONS: method *: HPLC, reversed-phase C 18, 40° C., mobile phase 0.1% aqueous formic acid and acetonitrile, linear gradient from 10% to 95% acetonitrile

CCCCOc1cc(Nc2ncc(Cl)c(NC3CC3)n2)ccc1C; 3.13*
CCN(C)C(=O)c1cccc(Nc2ncc(Cl)c(NC3CC3)n2)c1; 1.56*
CCC(CC)c1ccc(Nc2ncc(Cl)c(NC3CC3)n2)cc1; 3.41*
CN(C)C(=O)c1ccc(Nc2ncc(Cl)c(NC3CC3(C)C)n2)cc1 (stereo not drawn); 1.86*;
CN(c1nc(Nc2cccc(N3CCOC3=O)c2)ncc1Cl)C1CC1; 2.13*
CCOC(=O)c1cc(Nc2ncc(Cl)c(NC3CC3)n2)ccc1Cl; 2.84*
COCCOc1cccc(Nc2ncc(C(F)(F)F)c(NC3CC3)n2)c1; 2.78*
COCc1cc(Nc2ncc(Cl)c(NC3CC3)n2)ccc1OC; 1.55*

Recorded logP of CCNC(=O)c1cccc(Nc2ncc(C(F)(F)F)c(NC3CC3)n2)c1 , please. 2.07*

====

- TEST_PROTOCOL: logP determination via retention times, calibrated with unbranched alkan-2-ones
- Type: physicochemical
- CONDITIONS: HPLC on reversed-phase C18, method *: 40° C., 0.1% aqueous formic acid and acetonitrile, linear gradient 10% to 95% acetonitrile
Marks after values point to notes of the source that are not given here.
MEASURED_QUANTITY: logP

CCOC(=O)Cc1ccc(Nc2ncc(Br)c(NC3CC3)n2)cc1; 2.06*
O=C1OCCN1c1ccc(Nc2ncc(Br)c(NC3CC3)n2)cc1; 1.37*
FC(F)(F)Sc1ccc(Nc2ncc(Br)c(NC3CC3)n2)cc1; 3.9*
CC(=O)Nc1cc(Nc2ncc(Cl)c(NCC3CC3)n2)ccc1C; 1.49*
Cc1cccc(Nc2ncc(Br)c(NC3CC3)n2)c1; 2.07*

What value of logP has been recorded for this entry: Cc1ccc(Nc2ncc(Cl)c(NC3CC3)n2)cc1C 2.01*

And the next one, O=C(c1ccc(Nc2ncc(Cl)c(NC3CC3)n2)cc1)N1CCCCC1 ? 1.97*

Moving on to N#Cc1cnc(Nc2ccc(N3CCCC3=O)cc2)nc1NC1CC1 1.89*

Proceed to Fc1cc(Cl)ccc1Nc1ncc(Cl)c(NC2CC2)n1 3.03*

Next molecule up: OCc1cccc(Nc2ncc(Br)c(NC3CC3)n2)c1 1.37*

Cool, now O=C(Nc1cccc(Nc2ncc(Cl)c(NC3CC3)n2)c1)c1ccco1 1.62*

And then CS(=O)(=O)Nc1ccc(Nc2ncc(Cl)c(NCC3CC3)n2)cc1 , what is it? 1.51*

Check CCOc1ccccc1Nc1ncc(Cl)c(NC2CC2)n1 too. 2.13*

Same read-out for Clc1cnc(Nc2ccc(-c3cscn3)cc2)nc1NCC1CC1 ? 2.06*

Ok, now Fc1cccc(Nc2ncc(Cl)c(NC3CC3)n2)c1F 2.53*

Again, but for OC(c1cccc(Nc2ncc(C(F)(F)F)c(NCC3CC3)n2)c1)C(F)(F)F (centres unmarked) 2.82*

One more molecule: O=S(=O)(c1cccc(Nc2ncc(Cl)c(NCC3CC3)n2)c1)N1CCCCC1 2.16*

Quick one: CCC(=O)Nc1cc(Nc2ncc(Br)c(NC3CC3)n2)ccc1O 1.85*

Now the same for CN(C)C(=O)c1cccc(Nc2ncc(Cl)c(NC3CC3)n2)c1 1.33*

Proceed to Clc1cnc(Nc2cccc(Cl)c2Cl)nc1NC1CC1 3.76*

====

// values below are reported logP
- TEST_PROTOCOL: logP determination via retention times, calibrated with unbranched alkan-2-ones
- Type: physicochemical
- CONDITIONS: method **: HPLC reversed-phase C 18, 43° C., 0.1% aqueous phosphoric acid and acetonitrile, linear gradient 10% to 95% acetonitrile

Check out these entries, answers already filled in.
CCCCNS(=O)(=O)c1ccc(Nc2ncc(Cl)c(NC3CC3)n2)cc1; 2.6**
CN(C)S(=O)(=O)c1ccc(Nc2ncc(Cl)c(NC3CC3)n2)cc1; 2.26**
CC(C)c1ccc(Nc2ncc(Cl)c(NCC3CC3)n2)cc1; 2.62**

Tell me the measured logP of O=C(O)c1ccc(Nc2ncc(Cl)c(NC3CC3)n2)cc1 , please. 1.55**

Please do the same for Cc1cc(C)nc(NS(=O)(=O)c2ccc(Nc3ncc(Cl)c(NC4CC4)n3)cc2)n1 as well. 1.72**

Let us now turn to CC(=O)c1cccc(Nc2ncc(Cl)c(NCC3CC3)n2)c1 1.87**

Moving on to the next compound: CC(=O)c1cccc(Nc2ncc(Cl)c(NC3CC3)n2)c1 1.84**

Field entry: O=C1CCCN1c1cc(Nc2ncc(Cl)c(NC3CC3)n2)ccc1Cl 1.9**

Subsequent entry: NS(=O)(=O)c1ccc(Nc2ncc(Cl)c(NC3CC3)n2)cc1 1.37**

Note, next up: NS(=O)(=O)c1cc(Nc2ncc(Cl)c(NC3CC3)n2)cc(C(F)(F)F)c1 2.48**

Could you do the same for O=C1CCCN1c1ccc(Nc2ncc(Br)c(NCC3CC3)n2)cc1 , please? 1.59**

====

- TEST_PROTOCOL: logP determination via retention times, calibrated with unbranched alkan-2-ones
- Assay type: physicochemical
- CONDITIONS: method **: HPLC reversed-phase C 18, temperature 43° C.; mobile phase 0.1% aqueous phosphoric acid and acetonitrile; linear gradient 10% to 95% acetonitrile
# logP listing for each entry below

Sample records with logP:
COC(=O)Nc1cccc(Nc2ncc(C(F)(F)F)c(NC3CC3)n2)c1; 2.06**
CC(=O)Nc1cccc(Nc2ncc(C(F)(F)F)c(NC3CC3)n2)c1; 1.77**
Brc1cnc(Nc2cccc(N3CCCC3)c2)nc1NC1CC1; 2.38**
Clc1cnc(Nc2cccc(N3CCCC3)c2)nc1NC1CC1; 2.23**

With those in mind, consider the next molecule.
Give its logP value. Item: CC(=O)c1ccc(Nc2ncc(C(F)(F)F)c(NC3CC3)n2)cc1 2.8**

====

- TEST_PROTOCOL: logP determination via retention times, calibrated with unbranched alkan-2-ones
- Assay type: physicochemical
- CONDITIONS: method **: HPLC reversed-phase C 18, 43° C., 0.1% aqueous phosphoric acid and acetonitrile, linear gradient 10% to 95% acetonitrile
Measured logP, listed per entry for reference.

Solved entries (count: 5):
CCOC1(Nc2nc(Nc3ccccc3)ncc2Cl)CC1.Cl; 2.23**
COc1cc(Nc2ncc(Cl)c(NCC3CC3)n2)cc(OC)c1OC; 1.78**
CC(=O)c1ccc(Nc2ncc(Cl)c(NC3CC3)n2)cc1.Cl; 1.99**
CCOC1(Nc2nc(Nc3ccccc3)ncc2Cl)CC1; 2.23**
NS(=O)(=O)c1cccc(Nc2ncc(Cl)c(NCC3CC3)n2)c1; 1.51**

Look up logP: CCCCNS(=O)(=O)c1ccc(Nc2ncc(Cl)c(NCC3CC3)n2)cc1 2.75**

Same thing, different compound: NS(=O)(=O)c1ccc(Nc2ncc(Cl)c(NCC3CC3)n2)cc1 1.52**

Also check O=C1CCCN1c1ccc(Nc2ncc(Cl)c(NC3CC3)n2)cc1 1.45**

Moving on to FC(F)(F)c1cnc(Nc2ccccc2)nc1NC1CC1 2.62**

Request: Fc1cnc(Nc2ccccc2)nc1NC1CC1 1.45**

====

Parameter logP: see the listing below.
- TEST_PROTOCOL: logP determination via retention times, calibrated with unbranched alkan-2-ones
- Assay type: physicochemical
- CONDITIONS: method *: HPLC, reversed-phase C 18, 40° C., mobile phase 0.1% aqueous formic acid and acetonitrile, linear gradient from 10% to 95% acetonitrile

CSc1cccc(Nc2ncc(Cl)c(NC3CC3(C)C)n2)c1 (centres unmarked) [compound 1029]; 3.07*;
COCc1cccc(Nc2ncc(Cl)c(NC3CC3(C)C)n2)c1 (centres unmarked) [compound 1028]; 2.36*;
O=C(c1cccc(Nc2ncc(Cl)c(NC3CC3)n2)c1)N1CCNCC1 [compound 1065]; 0.53*

Form field: reported logP of CN1CCN(C(=O)c2cccc(Nc3ncc(Cl)c(NC4CC4)n3)c2)CC1 [compound 1059] 0.59*

Now the compound CC1(C)CC1Nc1nc(Nc2cccc(N3CCOC3=O)c2)ncc1Cl (centres unmarked) [compound 1035] 1.93*;

====

- TEST_PROTOCOL: logP determination via retention times, calibrated with unbranched alkan-2-ones
- Type: physicochemical
- CONDITIONS: HPLC reversed-phase C 18, EEC Directive 79/831 Annex V.A8; method *: 40° C., 0.1% aqueous formic acid and acetonitrile, linear gradient 10% to 95% acetonitrile
Marks after values point to notes of the source that are not given here.
Reported logP values are given for each entry in this list.

O=C(O)c1cccc(Nc2ncc(Cl)c(NC3CC3)n2)c1; 1.32*
CCSC(C)c1cccc(Nc2ncc(Br)c(NC3CC3)n2)c1 (centres unmarked); 3.09*

Recorded logP for CC(=O)Cc1ccc(Nc2ncc(Cl)c(NC3CC3)n2)cc1 , please? 1.48*

Queued: COCC(C)NC(=O)c1cccc(Nc2ncc(Cl)c(NC3CC3)n2)c1 (centres unmarked) 1.47*

Another compound to check: COC(C)c1cccc(Nc2ncc(Cl)c(NC3CC3)n2)c1 (centres unmarked) 1.96*

Reference source for all entries: patent US20100081679A1
